# TGI listing for each entry below
Test system: SNB-75 CNS
procedure-text: NCI tumour cell line growth inhibition, 48 h

molecule: CCN(CC)Cc1c(/C=C\c2cc(OC)c(OC)c(OC)c2)ccc(OC)c1O
target: SNB-75 CNS
TGI: 9.49 µM

molecule: C[N+](C)(C)CC(=O)N/N=C/c1ccncc1
target: SNB-75 CNS
TGI: > 100 µM

molecule: OCCN1CCN2C=C(C3CCCC4N(CCO)CCN34)CCC21 (stereo not drawn)
target: SNB-75 CNS
TGI: > 100 µM

molecule: CCOC(=O)c1[nH]cc(C)c1-c1ccc2c(-c3ccccc3)nc3ccccc3n12
target: SNB-75 CNS
TGI: 5.87 µM

molecule: O=C(O)CC(Sc1ccccc1)c1ccccc1 (stereo not drawn)
target: SNB-75 CNS
TGI: > 100 µM

molecule: CC(=O)C1=C(C)N(c2ccc(C)cc2)C2(O)C3=C(C(=O)c4ccccc4C3=O)C(O)=CC12Cl (stereo not drawn)
target: SNB-75 CNS
TGI: > 100 µM

molecule: FC(F)(Sc1ncc[nH]1)c1nc2ccccc2o1
target: SNB-75 CNS
TGI: > 100 µM

molecule: COC1OC(COC(=O)c2cc(O)c(O)c(O)c2)C(OC(=O)c2cc(O)c(O)c(O)c2)C(OC(=O)c2cc(O)c(O)c(O)c2)C1OC(=O)c1cc(O)c(O)c(O)c1 (stereo not drawn)
target: SNB-75 CNS
TGI: > 100 µM

molecule: CN1CCN(C)C12C=CC=CC21CC1
target: SNB-75 CNS
TGI: > 100 µM

molecule: O=C1C=CC(=O)c2c1ccc1c3ccccc3n(Cc3cccc([N+](=O)[O-])c3)c21
target: SNB-75 CNS
TGI: > 100 µM

molecule: COC(=O)C1=C(C)C=C(N2CCOCC2)C(C(=O)OC)C1c1ccccc1 (stereo not drawn)
target: SNB-75 CNS
TGI: > 10 µM

molecule: O=C(CCCl)NNC1=NCCCN1
target: SNB-75 CNS
TGI: > 100 µM

molecule: CC1OC(OC2C(OC3CCC4(C)C(CCC5(C)C4CC=C4C6CC(C)(C)CCC6(C(=O)O)CCC45C)C3(C)CO)OCC(O)C2O)C(O)C(O)C1O (stereo not drawn)
target: SNB-75 CNS
TGI: 30.7 µM
